Collected Vd values appear next to each entry.
assayMethodText: Pharmacokinetic test in rats
Format: in vivo, SD rats
runParameters: male, SD, rat, iv, i.v. 2.5 mg/kg, plasma, read-out: Vdss
Numbers only here, please. The scale is L/kg.

Tell me the measured Vd of CCc1cc2ncc(CN3CC=C(c4ccc(C(=O)Nc5cnn(C6CCN(c7ccc8c(c7)C(=O)N(C7CCC(=O)NC7=O)C8=O)CC6)c5)nc4)CC3)cc2[nH]c1=O (centres unmarked) , please.
0.366

Moving on to the next compound: CCc1cc2ncc(CN3CCN(c4ccc(C(=O)NC5CCN(c6ccc7c(c6)C(=O)N(C6CCC(=O)NC6=O)C7=O)CC5)nc4)CC3)cc2[nH]c1=O (centres unmarked)
0.405
